Assay: chemical genetic growth profiling, strain panel (AID 1159580);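 also: tested at 20 µM; growth read once vehicle control cultures reached saturation at 30 °C; 1 = growth at the plate median or of vehicle wells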
Settings: S. cerevisiae deletion strains, growth OD, locus YBR023C, strain chs3, stronger effect = lower value
The campaign covered roughly 5,500 compounds. About 2,000 (36%) were called active. Roughly 18% stayed inconclusive and do not appear here. Some of the results follow.
Task for the reader: assign each of the following compounds its reported normalized growth.

IN: Could you tell me which normalized growth is on file for CC1OC(=O)C(C(C)C)NC(=O)C(C(C)C)OC(=O)C(C(C)C)NC(=O)C(C)OC(=O)C(C(C)C)NC(=O)C(C(C)C)OC(=O)C(C(C)C)NC(=O)C(C)OC(=O)C(C(C)C)NC(=O)C(C(C)C)OC(=O)C(C(C)C)NC1=O (stereo not given) ?
OUT: 0.23 (active)

IN: Give its normalized growth value. Item: CCOC(=O)OC(C)OC(=O)C1N2C(=O)C(NC(=O)[C@H](N)c3ccccc3)C2SC1(C)C (stereo not given in full)
OUT: 0.986 (inactive)

IN: What value of normalized growth has been recorded for this entry: `C[C@@H]1C(=O)O[C@H]2[C@H]1CC[C@@]1(C)C=CC(=O)[C@@]3(C)O[C@@]213`
OUT: 1.02 (inactive)

IN: State the recorded normalized growth for this entry: CC(CC(=O)C(O)C(C)(C)O)C1C(=O)CC2(C)C3=CCC4C(C)(C)C(OC5OCC(O)C(O)C5O)CCC45CC35C(O)CC12C (stereo not given)
OUT: 1.02 (inactive)

IN: // normalized growth lookup, key: Nc1c2c(nc3ccccc13)CCCC2O (stereo not given)
OUT: 1.01 (inactive)

IN: Item under review: `O=C1C(O)=C(O)C(=O)C(O)=C1O` . Reported normalized growth?
OUT: 1.02 (inactive)

IN: Can you share its normalized growth? I mean this compound: `NC(N)=N/N=C/c1c(Cl)cccc1Cl`
OUT: 0.968 (inactive)

IN: Any idea what its normalized growth is? The compound is `CC(C)(C#N)O[C@@H]1O[C@H](CO)[C@@H](O)[C@H](O)[C@H]1O`
OUT: 1 (inactive)

IN: Name the reported normalized growth value associated with the compound `Cc1ccnc(NS(=O)(=O)c2ccc(N)cc2)n1`
OUT: 0.998 (inactive)

IN: Please look up its normalized growth: CC1(C)CC(O)C2(C)CCC3(C)C(=CCC4C5(C)CCC(O)C(C)(CO)C5CCC43C)C2C1 (stereo not given)
OUT: 1.03 (inactive)

IN: So what's the measured normalized growth for this one? `C[C@@H]1CC[C@H]2[C@@H](C)C(=O)O[C@@H]3O[C@@]4(C)CC[C@@H]1[C@]32OO4`
OUT: 0.906 (active)

IN: Which normalized growth value belongs to CCN1C[C@]2(OC(=O)c3ccccc3NC(C)=O)CCC(OC)[C@]34C1[C@H](CC23)[C@@]1(O)CC(OC)[C@H]2CC4C1(O)[C@H]2OC (stereo not given in full) ?
OUT: 0.977 (inactive)

IN: For CC(CC(=O)C1OC1(C)C)C1C(=O)CC2(C)C3=CCC4C(C)(C)C(OC5OCC(O)C(O)C5O)CCC45CC35C(O)CC12C (stereo not given) , what is its reported normalized growth?
OUT: 1.01 (inactive)

IN: Dear colleague, I am looking for the recorded normalized growth of the following compound: C[C@H]1[C@H](C)CC[C@]2(CO)CC[C@]3(C)C(=CCC4[C@@]5(C)CC[C@H](O)C(C)(C)C5CC[C@]43C)[C@H]12 (stereo not given in full)
OUT: 0.995 (inactive)

IN: What normalized growth value was documented for this compound, `Cc1cc(O)ccc1Cl` ?
OUT: 1.01 (inactive)

IN: Look at this compound and give its reported normalized growth. `CCOc1ccc2nc3cc(N)ccc3c(N)c2c1`
OUT: 0.721 (active)

IN: Returns the measured normalized growth for the input compound. Input: `COc1cc(N)c(Cl)cc1C(=O)NC1CCN(Cc2ccccc2)CC1`
OUT: 0.995 (inactive)

IN: Fill in the blank: the reported normalized growth of CC1(C)CC[C@]2(C(=O)O)CC[C@]3(C)C(=CCC4[C@@]5(C)CC[C@H](O)[C@@](C)(CO)C5CC[C@]43C)C2C1 (stereo not given in full) is ____.
OUT: 1.02 (inactive)

IN: What measured normalized growth goes with NC(Cc1c[nH]c2ccccc12)C(=O)O (stereo not given) ?
OUT: 1.02 (inactive)

IN: Please look up its normalized growth: `NNc1nncc2ccccc12`
OUT: 0.986 (inactive)

Sourced from PubChem BioAssay AID1159580
